measurement_target: Grb2 SH2 (UniProt P62993)
Sequence (P62993 whole entry, looked up): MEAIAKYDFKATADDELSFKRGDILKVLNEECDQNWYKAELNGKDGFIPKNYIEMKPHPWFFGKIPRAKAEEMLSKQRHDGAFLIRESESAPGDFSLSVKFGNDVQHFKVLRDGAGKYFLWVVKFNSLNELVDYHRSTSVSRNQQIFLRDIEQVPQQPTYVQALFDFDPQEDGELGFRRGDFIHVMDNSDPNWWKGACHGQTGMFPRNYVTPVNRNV
method_summary: SH2 binding enrichment of the phosphorylated peptide, bacterial display (enrichment ratio); higher = better substrate or ligand; peptides without Tyr show the background
Tag: 1.0 if measured SH2 binding enrichment is not below 0.8, 0.0 if it is.

RVNSAYQEKVS [ACAN_Y100_D102E] : 1.0
SLEKGYELPDG [ACTC1_Y242_S241G] : 1.0
TLRETYGEMAD [ALB_Y108] : 1.0
LVTCSYLLGNS [LMNA_Y646_R644C] : 0.0
IVAREYYSDAD [CAMK2A_Y106_E109D] : 1.0
SGGMDYGMVGG [TNRC6B_Y1382] : 0.0
SMVVPYEPPEV [TP53_Y220_V216M] : 1.0
ADYPDYKYRPR [SOX11_Y116] : 1.0
HIKHNYECLVF [XRCC5_Y416_YF] : 1.0
DWLRRYLENGK [HLA-A_Y195_E190D] : 0.0

Switching to the query record.
Incoming: SH2 binding enrichment >= 0.8 for EVGRVYLFLQP [ITGA2B_Y360] ?
Outgoing: 0.0

====

measurement_target: Grb2 SH2 (UniProt P62993)
method_summary: SH2 binding enrichment of the phosphorylated peptide, bacterial display (enrichment ratio); higher = better substrate or ligand; peptides without Tyr show the background
Catalogue of sequences with associated SH2 binding enrichment
// return just the number, without any unit appended

NPQKSYLIRLF [WAS_Y83_F84L_YF] : 1.03

Here is another sequence to look at.
Incoming: Read the entry PVDVAYRHGYF [PLEC_Y2967_R2969H] and write its reported SH2 binding enrichment.
Outgoing: 1.21

====

Tested on: c-Src
method_summary: phosphorylation enrichment, bacterial display (enrichment ratio); higher = better substrate or ligand; peptides without Tyr show the background
Kind request: treat 0.5 as inclusive, so phosphorylation enrichment at 0.5 or higher is y, anything lower is n.

FFRDGCMPRQF [GSS_Y270_Y270C_YF] : n
SGPRRYTMAAL [TTR_Y125_I127M] : y
GVIRHSVVCST [BTK_Y334_Y334S] : n
PNATLYKMTSI [SERPINA7_Y40_S43T] : y

Please find the next sequence below.
Incoming: Please check the record VYYDLYGGEKF [PTPN11_Y66_D61V] and state if its phosphorylation enrichment is at or above 0.5.
Outgoing: y

====

measurement_target: Fyn (UniProt P06241)
Sequence (P06241 whole entry, looked up): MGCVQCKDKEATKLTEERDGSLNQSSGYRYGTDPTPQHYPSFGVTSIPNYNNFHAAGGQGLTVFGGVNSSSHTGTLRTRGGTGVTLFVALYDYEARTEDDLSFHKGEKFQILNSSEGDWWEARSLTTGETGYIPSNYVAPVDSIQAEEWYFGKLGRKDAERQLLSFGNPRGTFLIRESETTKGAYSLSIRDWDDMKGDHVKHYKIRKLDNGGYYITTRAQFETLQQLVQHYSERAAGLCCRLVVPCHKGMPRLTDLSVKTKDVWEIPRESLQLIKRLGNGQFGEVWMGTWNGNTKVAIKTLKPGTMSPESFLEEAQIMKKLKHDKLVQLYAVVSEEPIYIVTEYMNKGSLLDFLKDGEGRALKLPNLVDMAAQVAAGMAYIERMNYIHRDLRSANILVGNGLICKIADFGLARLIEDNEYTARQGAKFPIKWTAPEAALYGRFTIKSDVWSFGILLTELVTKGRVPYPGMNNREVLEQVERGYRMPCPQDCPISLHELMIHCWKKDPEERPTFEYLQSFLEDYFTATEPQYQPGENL
method_summary: phosphorylation enrichment, bacterial display (enrichment ratio); higher = better substrate or ligand; peptides without Tyr show the background
measure: phosphorylation enrichment
Answer field: number only, no words.

Known phosphorylation enrichment results, listed for orientation:
ADQLDYIKALN [HPRT1_Y81_L78Q] : 0.492
FSDPDYLAAVD [GLB1_Y154_S149F] : 0.504

Incoming: For the sequence KVITDYYVDMK [MPP4_Y566] , give its measured phosphorylation enrichment value.
Outgoing: 0.557

Incoming: Determine from records and report phosphorylation enrichment for HIKHNYECLVF [XRCC5_Y416_YF]
Outgoing: 0.709

Incoming: Supply reported phosphorylation enrichment belonging to this sequence: MCDSHYLESRS [CLK1_Y56]
Outgoing: 0.449

====

measurement_target: SHP2-C SH2
method_summary: SH2 binding enrichment of the phosphorylated peptide, bacterial display (enrichment ratio); higher = better substrate or ligand; peptides without Tyr show the background
A collection of sequences and their measured SH2 binding enrichment
Form: value (number only, do not type unit).

As a guide, the following entries are already answered.
EVGRVYLFLQP [ITGA2B_Y360] : 0.737
EPFEVYRIVPE [IRF8_Y110_K108E_YF] : 0.535
DNLSNYVFQGQ [GRIN2A_Y978_N976S] : 0.818
SISYDYCRVPM [BST2_Y8_T4I] : 0.705
GTCGGYCSVLG [RAB18_Y202_A198T] : 2.08
ALKKPYSVLFK [RPF2_Y59_G60S_YF] : 1.65
FALAEYTEVKT [ALDH1A3_Y497_YF] : 0.506
TDEFEYDELIV [TGM1_Y136_YF] : 0.859

Incoming: Please report the measured SH2 binding enrichment for PKSLFYLLLKL [TRPC6_Y775]
Outgoing: 1.31

Incoming: Quick one: give measured SH2 binding enrichment for VVLEDYLDIKN [CLCNKB_Y138]
Outgoing: 0.786

Incoming: Using the record for LEGEEYRMSGE [KRT3_Y511] , state its measured SH2 binding enrichment.
Outgoing: 0.562

Incoming: Answer with the recorded SH2 binding enrichment for the sequence listed here: IVAREYYSKAD [CAMK2B_Y107_E110K]
Outgoing: 0.749
